Data provenance: patent US20240309103A1

# TARGET DESC: T1, human NPR1 extracellular domain expressed with a C-terminal mouse IgG2a (hNPR1-mFc) (human)
# T1 construct: also called hNPR1-Fc; human NPR1 dimer
# T1 chain: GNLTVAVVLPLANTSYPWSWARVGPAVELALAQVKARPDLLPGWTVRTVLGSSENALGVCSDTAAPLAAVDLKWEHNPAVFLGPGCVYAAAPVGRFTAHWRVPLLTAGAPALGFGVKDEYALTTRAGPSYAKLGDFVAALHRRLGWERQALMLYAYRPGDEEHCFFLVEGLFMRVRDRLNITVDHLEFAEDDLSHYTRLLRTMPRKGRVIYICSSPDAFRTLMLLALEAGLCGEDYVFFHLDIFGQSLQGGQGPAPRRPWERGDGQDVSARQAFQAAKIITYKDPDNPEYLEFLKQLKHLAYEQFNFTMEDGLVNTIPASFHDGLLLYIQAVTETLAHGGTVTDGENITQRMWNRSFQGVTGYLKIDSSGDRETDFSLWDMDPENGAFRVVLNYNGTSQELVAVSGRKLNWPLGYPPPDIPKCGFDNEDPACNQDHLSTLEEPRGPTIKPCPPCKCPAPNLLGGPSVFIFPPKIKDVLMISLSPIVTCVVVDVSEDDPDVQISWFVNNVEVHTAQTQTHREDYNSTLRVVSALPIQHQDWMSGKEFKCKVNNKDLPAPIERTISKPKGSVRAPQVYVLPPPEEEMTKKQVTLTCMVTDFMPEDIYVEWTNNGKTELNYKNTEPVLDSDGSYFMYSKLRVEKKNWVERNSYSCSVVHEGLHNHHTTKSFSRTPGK
# PROTOCOL SUMMARY: SPR, mAb captured, 37 C
Documented t½ across a set of binders

>  <BINDER>
mAb22035 (antibody, V domains shown) VH: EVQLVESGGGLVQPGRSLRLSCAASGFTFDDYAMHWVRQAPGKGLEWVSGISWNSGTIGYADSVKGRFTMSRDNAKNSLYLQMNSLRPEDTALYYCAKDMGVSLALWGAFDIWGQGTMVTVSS VL: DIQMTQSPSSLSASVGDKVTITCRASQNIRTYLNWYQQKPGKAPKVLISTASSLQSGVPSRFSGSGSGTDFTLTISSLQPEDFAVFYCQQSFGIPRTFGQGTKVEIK

>  <t½>
90.8 min

$$$$
>  <BINDER>
mAb25479 (antibody, V domains shown) VH: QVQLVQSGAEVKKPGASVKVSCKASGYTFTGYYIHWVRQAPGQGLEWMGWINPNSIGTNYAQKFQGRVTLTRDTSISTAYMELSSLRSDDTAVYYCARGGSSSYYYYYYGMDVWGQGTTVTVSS VL: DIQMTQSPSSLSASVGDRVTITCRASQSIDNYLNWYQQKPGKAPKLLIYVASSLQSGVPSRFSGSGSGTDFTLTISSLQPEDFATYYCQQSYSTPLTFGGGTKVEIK

>  <t½>
8.3 min

$$$$
>  <BINDER>
mAb25497 (antibody, V domains shown) VH: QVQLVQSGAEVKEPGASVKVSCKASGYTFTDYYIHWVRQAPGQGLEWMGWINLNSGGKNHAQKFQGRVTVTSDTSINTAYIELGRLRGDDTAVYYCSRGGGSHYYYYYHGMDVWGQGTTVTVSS VL: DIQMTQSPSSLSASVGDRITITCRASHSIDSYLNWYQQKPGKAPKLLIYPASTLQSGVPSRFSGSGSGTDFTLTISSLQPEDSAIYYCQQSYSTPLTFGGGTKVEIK

>  <t½>
37.3 min

$$$$
